Tested on: A/J mice
Test: Induction of myocarditis by immunization with SERCA2a peptides, histology
Format: in vivo, mouse
Settings: individual peptide/CFA + PT, day 21, H&E heart sections; mean ± SEM
Ends that are not written are not given here.
READOUT_LABEL: Total inflammatory foci (Mean ± SEM)

SUBSTANCE | TESTED_SYSTEM | ASSAY_VALUE
SERCA2a 591-610: N-terminally acetylated 20-mer peptide of SERCA2a, residues 591-610 (Ac-TFVGCVGMLDPPRIEVASSV; UniProt P16615 591-610, looked up, fragment) | A/J mice | 0
SERCA2a 821-840: N-terminally acetylated 20-mer peptide of SERCA2a, residues 821-840 (Ac-RNPKEPLISGWLFFRYLAIG; UniProt P16615 821-840, looked up, fragment) | A/J mice | 0
SERCA2a 311-330: N-terminally acetylated 20-mer peptide of SERCA2a, residues 311-330 (Ac-LPAVITTCLALGTRRMAKKN; UniProt P16615 311-330, looked up, fragment) | A/J mice | 0
SERCA2a 471-490: N-terminally acetylated 20-mer peptide of SERCA2a, residues 471-490 (Ac-CNSVIKQLMKKEFTLEFSRD; UniProt P16615 471-490, looked up, fragment) | A/J mice | 0
SERCA2a 601-620: N-terminally acetylated 20-mer peptide of SERCA2a, residues 601-620 (Ac-PPRIEVASSVKLCRQAGIRV; UniProt P16615 601-620, looked up, fragment) | A/J mice | 0
SERCA2a 481-500: N-terminally acetylated 20-mer peptide of SERCA2a, residues 481-500 (Ac-KEFTLEFSRDRKSMSVYCTP; UniProt P16615 481-500, looked up, fragment) | A/J mice | 0
